The reported measurements were obtained from patent US12398151B2.

molecular target: Atg7 (Homo sapiens, UniProt O95352); experiment: Atg7 activating enzyme (E1) inhibition; format: biochemical; conditions: 25 uM compound, 60 min preincubation; read-out: Atg7 percent inhibition of adduct formation
Sequence (O95352 whole entry, species assumed): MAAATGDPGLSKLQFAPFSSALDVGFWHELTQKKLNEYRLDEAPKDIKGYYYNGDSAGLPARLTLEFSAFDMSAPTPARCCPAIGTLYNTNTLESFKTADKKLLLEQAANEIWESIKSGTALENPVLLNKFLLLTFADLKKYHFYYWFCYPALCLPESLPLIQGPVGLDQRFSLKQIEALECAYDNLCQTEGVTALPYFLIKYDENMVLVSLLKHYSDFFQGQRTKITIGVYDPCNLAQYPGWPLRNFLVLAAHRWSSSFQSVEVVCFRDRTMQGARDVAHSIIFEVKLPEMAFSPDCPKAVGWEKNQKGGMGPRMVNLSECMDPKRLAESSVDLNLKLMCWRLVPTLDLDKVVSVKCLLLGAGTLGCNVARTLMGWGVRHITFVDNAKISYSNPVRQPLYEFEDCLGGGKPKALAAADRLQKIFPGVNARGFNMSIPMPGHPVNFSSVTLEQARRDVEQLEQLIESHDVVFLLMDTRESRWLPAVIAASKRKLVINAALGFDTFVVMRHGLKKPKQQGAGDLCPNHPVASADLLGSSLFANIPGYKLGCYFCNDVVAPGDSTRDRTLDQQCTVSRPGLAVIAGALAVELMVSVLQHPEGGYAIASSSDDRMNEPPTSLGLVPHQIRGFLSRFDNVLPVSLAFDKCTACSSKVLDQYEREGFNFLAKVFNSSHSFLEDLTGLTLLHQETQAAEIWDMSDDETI
Below, each entry is listed alongside its reported inhibition at 25 µM.
Assay Readout: inhibition at 25 µM

Molecule: C=CC(=O)N1Cc2cc(OCC(C)C)ccc2[C@@H](c2ccccc2)C1 [Compound 48]
Measurement: < 1%

Molecule: C=CC(=O)N1Cc2sc(CCC)cc2[C@@H](c2ccccc2C)C1 [Compound 110]
Measurement: 80%

Molecule: C=CC(=O)N1Cc2cc(Cl)ccc2[C@@H](c2ccccn2)C1 [Compound 80]
Measurement: < 1%

Molecule: C=CC(=O)N1Cc2cc(Br)ccc2[C@@H](c2ccccc2)C1 [Compound 61]
Measurement: < 1%
